- system: Human immunodeficiency virus type 1 protease (Human immunodeficiency virus 1, UniProt Q72874)
- methodNotes: Inhibitory activity of compound against HIV-1 protease in HIV-1 (K-60C) strain
The reader will find reported pIC50 values listed item by item below.
# pIC50: negative log10 of molar concentration; output just the value

O=C(N[C@H]1c2ccccc2OC[C@H]1O)[C@H](Cc1ccncc1)C[C@H](O)CN1CCN(Cc2cc3cccc(Cl)c3o2)C[C@H]1C(=O)NCC(F)(F)F	9.04
O=C(N[C@H]1c2ccccc2OC[C@H]1O)[C@H](Cc1ccncc1)C[C@H](O)CN1CCN(Cc2cc3ccccc3o2)C[C@H]1C(=O)NCC(F)(F)F	8.00

Problem: Give the reported pIC50 for this compound. O=C(N[C@H]1c2ccccc2OC[C@H]1O)[C@H](Cc1ccncc1)C[C@H](O)CN1CCN(Cc2ccc(-c3ccccc3)o2)C[C@H]1C(=O)NCC(F)(F)F
Solution: 9.96

Problem: Using known records, supply pIC50 for O=C(N[C@H]1c2ccccc2OC[C@H]1O)[C@H](Cc1cccnc1)C[C@H](O)CN1CCN(Cc2ccc(-c3ccccc3)o2)C[C@H]1C(=O)NCC(F)(F)F
Solution: 10.22

Problem: Read the entry O=C(N[C@H]1c2ccccc2OC[C@H]1O)[C@H](Cc1cccnc1)C[C@H](O)CN1CCN(Cc2cc3ccccc3o2)C[C@H]1C(=O)NCC(F)(F)F and write its reported pIC50.
Solution: 8.43

Problem: Tell me pIC50 reported for O=C(N[C@H]1c2ccccc2OC[C@H]1O)[C@H](Cc1ccccc1)C[C@H](O)CN1CCN(Cc2ccc(-c3ccncc3)o2)C[C@H]1C(=O)NCC(F)(F)F
Solution: 9.22

---

- System: MT4
- methodNotes: Antiviral activity of compound against spread of wild type K-60C virus infection in MT-4 human T-lymphoid cells
- Format: functional
- conditionNotes: read-out: CIC95
Some compounds, each annotated with its measured IC95.
// note: answer is a bare numeric in nM

O=C(N[C@H]1c2ccccc2OC[C@H]1O)[C@H](Cc1cccnc1)C[C@H](O)CN1CCN(Cc2cc3cccc(Cl)c3o2)C[C@H]1C(=O)NCC(F)(F)F	31

Problem: For the compound O=C(N[C@H]1c2ccccc2OC[C@H]1O)[C@H](Cc1ccccc1)C[C@H](O)CN1CCN(Cc2ccc(-c3ccncc3)o2)C[C@H]1C(=O)NCC(F)(F)F , give its measured IC95 value.
Solution: 15

Problem: Please give measured IC95 of the following entry: O=C(N[C@H]1c2ccccc2OC[C@H]1O)[C@H](Cc1cccnc1)C[C@H](O)CN1CCN(Cc2cc3ccccc3o2)C[C@H]1C(=O)NCC(F)(F)F
Solution: 125

---

- system: Cytochrome P450 2C9 (Homo sapiens, UniProt P11712)
- Sequence (P11712 whole entry): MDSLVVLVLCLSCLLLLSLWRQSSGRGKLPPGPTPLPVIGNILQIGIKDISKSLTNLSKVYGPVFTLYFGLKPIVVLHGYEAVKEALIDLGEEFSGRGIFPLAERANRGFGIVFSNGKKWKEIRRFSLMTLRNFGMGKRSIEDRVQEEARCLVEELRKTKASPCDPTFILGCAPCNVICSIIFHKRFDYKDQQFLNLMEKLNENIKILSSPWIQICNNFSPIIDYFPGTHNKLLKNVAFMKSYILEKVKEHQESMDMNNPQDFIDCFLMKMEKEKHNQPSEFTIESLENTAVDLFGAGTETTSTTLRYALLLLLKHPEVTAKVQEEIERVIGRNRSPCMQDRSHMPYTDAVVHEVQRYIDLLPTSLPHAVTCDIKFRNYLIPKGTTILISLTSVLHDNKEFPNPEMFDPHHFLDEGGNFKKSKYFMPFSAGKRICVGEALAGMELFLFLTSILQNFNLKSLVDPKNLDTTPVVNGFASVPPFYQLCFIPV
- methodNotes: Inhibition of human liver microsome Cytochrome P450 2C9
- Format: ADME, microsomes
readoutName: IC50

Problem: Read the entry O=C(N[C@H]1c2ccccc2OC[C@H]1O)[C@H](Cc1cccnc1)C[C@H](O)CN1CCN(Cc2cc3cccc(Cl)c3o2)C[C@H]1C(=O)NCC(F)(F)F and write its reported IC50.
Solution: 27.3 µM

---

- methodNotes: Oral bioavailability in dog (dose 5 mg/kg p.o. and 2 mg/kg i.v.)
- Type: ADME, organism-based, Canis lupus familiaris
- conditionNotes: in vivo
readoutName: bioavailability (%)
Output spec: scalar in %, unitless text.

// below: answered compounds
O=C(N[C@H]1c2ccccc2OC[C@H]1O)[C@H](Cc1ccncc1)C[C@H](O)CN1CCN(Cc2cc3ccccc3o2)C[C@H]1C(=O)NCC(F)(F)F	4
O=C(N[C@H]1c2ccccc2OC[C@H]1O)[C@H](Cc1cccnc1)C[C@H](O)CN1CCN(Cc2cc3ccccc3o2)C[C@H]1C(=O)NCC(F)(F)F	24
O=C(N[C@H]1c2ccccc2OC[C@H]1O)[C@H](Cc1ccncc1)C[C@H](O)CN1CCN(Cc2ccc(-c3ccccc3)o2)C[C@H]1C(=O)NCC(F)(F)F	2

Problem: Give the reported bioavailability for this compound. O=C(N[C@H]1c2ccccc2OC[C@H]1O)[C@H](Cc1cccnc1)C[C@H](O)CN1CCN(Cc2ccc(-c3ccccc3)o2)C[C@H]1C(=O)NCC(F)(F)F
Solution: 1

---

Reported values of solubility for individual entries
- methodNotes: Solubility of compound at pH 5.2
- Format: physicochemical
- conditionNotes: buffer

Example entries and their recorded answers appear below.
O=C(N[C@H]1c2ccccc2OC[C@H]1O)[C@H](Cc1ccccc1)C[C@H](O)CN1CCN(Cc2ccc(-c3ccncc3)o2)C[C@H]1C(=O)NCC(F)(F)F	670 µg/mL
O=C(N[C@H]1c2ccccc2OC[C@H]1O)[C@H](Cc1ccncc1)C[C@H](O)CN1CCN(Cc2cc3ccccc3o2)C[C@H]1C(=O)NCC(F)(F)F	280 µg/mL
O=C(N[C@H]1c2ccccc2OC[C@H]1O)[C@H](Cc1ccncc1)C[C@H](O)CN1CCN(Cc2cc3cccc(Cl)c3o2)C[C@H]1C(=O)NCC(F)(F)F	< 10 µg/mL
O=C(N[C@H]1c2ccccc2OC[C@H]1O)[C@H](Cc1cccnc1)C[C@H](O)CN1CCN(Cc2cc3ccccc3o2)C[C@H]1C(=O)NCC(F)(F)F	310 µg/mL
O=C(N[C@H]1c2ccccc2OC[C@H]1O)[C@H](Cc1cccnc1)C[C@H](O)CN1CCN(Cc2cc3cccc(Cl)c3o2)C[C@H]1C(=O)NCC(F)(F)F	10 µg/mL
O=C(N[C@H]1c2ccccc2OC[C@H]1O)[C@H](Cc1ccncc1)C[C@H](O)CN1CCN(Cc2ccc(-c3ccccc3)o2)C[C@H]1C(=O)NCC(F)(F)F	40 µg/mL

Switching to the query record.
Problem: Please give the documented solubility of O=C(N[C@H]1c2ccccc2OC[C@H]1O)[C@H](Cc1cccnc1)C[C@H](O)CN1CCN(Cc2ccc(-c3ccccc3)o2)C[C@H]1C(=O)NCC(F)(F)F
Solution: 10 µg/mL

---

- methodNotes: Half life of compound after both po and iv administration at a dose of 5 mg/kg and 2 mg/kg resp in dog
- Assay type: ADME, organism-based, Canis lupus familiaris
- conditionNotes: in vivo
readoutName: half-life (h)
Your answer should be a plain number; it is taken to be in h.

The examples below pair each entry with its known result.
O=C(N[C@H]1c2ccccc2OC[C@H]1O)[C@H](Cc1ccccc1)C[C@H](O)CN1CCN(Cc2ccc(-c3ccncc3)o2)C[C@H]1C(=O)NCC(F)(F)F	1
O=C(N[C@H]1c2ccccc2OC[C@H]1O)[C@H](Cc1ccncc1)C[C@H](O)CN1CCN(Cc2cc3ccccc3o2)C[C@H]1C(=O)NCC(F)(F)F	1.7
O=C(N[C@H]1c2ccccc2OC[C@H]1O)[C@H](Cc1cccnc1)C[C@H](O)CN1CCN(Cc2ccc(-c3ccccc3)o2)C[C@H]1C(=O)NCC(F)(F)F	1.23
O=C(N[C@H]1c2ccccc2OC[C@H]1O)[C@H](Cc1cccnc1)C[C@H](O)CN1CCN(Cc2cc3ccccc3o2)C[C@H]1C(=O)NCC(F)(F)F	0.867

Problem: Output half-life of O=C(N[C@H]1c2ccccc2OC[C@H]1O)[C@H](Cc1ccncc1)C[C@H](O)CN1CCN(Cc2ccc(-c3ccccc3)o2)C[C@H]1C(=O)NCC(F)(F)F
Solution: 1.07

---

Reported IC95 by item:
- System: MT4
- methodNotes: Antiviral activity of compound against spread of wild type NL4-3 virus infection in MT-4 human T-lymphoid cells
- Assay type: functional
- conditionNotes: read-out: CIC95
# value in nM; strip the unit string

Please review the following examples before continuing.
O=C(N[C@H]1c2ccccc2OC[C@H]1O)[C@H](Cc1cccnc1)C[C@H](O)CN1CCN(Cc2cc3cccc(Cl)c3o2)C[C@H]1C(=O)NCC(F)(F)F	10
O=C(N[C@H]1c2ccccc2OC[C@H]1O)[C@H](Cc1cccnc1)C[C@H](O)CN1CCN(Cc2cc3ccccc3o2)C[C@H]1C(=O)NCC(F)(F)F	15

Problem: # lookup: MT4 IC95, key = O=C(N[C@H]1c2ccccc2OC[C@H]1O)[C@H](Cc1ccncc1)C[C@H](O)CN1CCN(Cc2ccc(-c3ccccc3)o2)C[C@H]1C(=O)NCC(F)(F)F
Solution: 15

Problem: Tell me IC95 of CC(C)(C)NC(=O)[C@@H]1CN(Cc2cccnc2)CCN1C[C@@H](O)C[C@@H](Cc1ccccc1)C(=O)N[C@H]1c2ccccc2C[C@H]1O when tested on MT4.
Solution: 50

Problem: Fetch value of IC95 on MT4 for O=C(N[C@H]1c2ccccc2OC[C@H]1O)[C@H](Cc1ccncc1)C[C@H](O)CN1CCN(Cc2cc3ccccc3o2)C[C@H]1C(=O)NCC(F)(F)F .
Solution: 15

---

Property: Cmax; scope: individual compounds
- methodNotes: Cmax of compound after both po and iv administration at a dose of 5 mg/kg and 2 mg/kg resp in dog
- Type: ADME, organism-based, Canis lupus familiaris
- conditionNotes: in vivo
Report the figure in nM without appending any unit label.

Problem: Tell me measured Cmax for O=C(N[C@H]1c2ccccc2OC[C@H]1O)[C@H](Cc1cccnc1)C[C@H](O)CN1CCN(Cc2ccc(-c3ccccc3)o2)C[C@H]1C(=O)NCC(F)(F)F please.
Solution: 110

Problem: Look up and state reported Cmax for O=C(N[C@H]1c2ccccc2OC[C@H]1O)[C@H](Cc1ccncc1)C[C@H](O)CN1CCN(Cc2cc3ccccc3o2)C[C@H]1C(=O)NCC(F)(F)F
Solution: 380

Problem: Name the recorded Cmax of the compound listed here: O=C(N[C@H]1c2ccccc2OC[C@H]1O)[C@H](Cc1cccnc1)C[C@H](O)CN1CCN(Cc2cc3ccccc3o2)C[C@H]1C(=O)NCC(F)(F)F
Solution: 3360

Problem: # return recorded Cmax for input O=C(N[C@H]1c2ccccc2OC[C@H]1O)[C@H](Cc1ccncc1)C[C@H](O)CN1CCN(Cc2ccc(-c3ccccc3)o2)C[C@H]1C(=O)NCC(F)(F)F
Solution: 210
